Attribution: patent US20250236611A1

# TEST_TARGET: JAK1 (Homo sapiens)
# Sequence (P23458 whole entry): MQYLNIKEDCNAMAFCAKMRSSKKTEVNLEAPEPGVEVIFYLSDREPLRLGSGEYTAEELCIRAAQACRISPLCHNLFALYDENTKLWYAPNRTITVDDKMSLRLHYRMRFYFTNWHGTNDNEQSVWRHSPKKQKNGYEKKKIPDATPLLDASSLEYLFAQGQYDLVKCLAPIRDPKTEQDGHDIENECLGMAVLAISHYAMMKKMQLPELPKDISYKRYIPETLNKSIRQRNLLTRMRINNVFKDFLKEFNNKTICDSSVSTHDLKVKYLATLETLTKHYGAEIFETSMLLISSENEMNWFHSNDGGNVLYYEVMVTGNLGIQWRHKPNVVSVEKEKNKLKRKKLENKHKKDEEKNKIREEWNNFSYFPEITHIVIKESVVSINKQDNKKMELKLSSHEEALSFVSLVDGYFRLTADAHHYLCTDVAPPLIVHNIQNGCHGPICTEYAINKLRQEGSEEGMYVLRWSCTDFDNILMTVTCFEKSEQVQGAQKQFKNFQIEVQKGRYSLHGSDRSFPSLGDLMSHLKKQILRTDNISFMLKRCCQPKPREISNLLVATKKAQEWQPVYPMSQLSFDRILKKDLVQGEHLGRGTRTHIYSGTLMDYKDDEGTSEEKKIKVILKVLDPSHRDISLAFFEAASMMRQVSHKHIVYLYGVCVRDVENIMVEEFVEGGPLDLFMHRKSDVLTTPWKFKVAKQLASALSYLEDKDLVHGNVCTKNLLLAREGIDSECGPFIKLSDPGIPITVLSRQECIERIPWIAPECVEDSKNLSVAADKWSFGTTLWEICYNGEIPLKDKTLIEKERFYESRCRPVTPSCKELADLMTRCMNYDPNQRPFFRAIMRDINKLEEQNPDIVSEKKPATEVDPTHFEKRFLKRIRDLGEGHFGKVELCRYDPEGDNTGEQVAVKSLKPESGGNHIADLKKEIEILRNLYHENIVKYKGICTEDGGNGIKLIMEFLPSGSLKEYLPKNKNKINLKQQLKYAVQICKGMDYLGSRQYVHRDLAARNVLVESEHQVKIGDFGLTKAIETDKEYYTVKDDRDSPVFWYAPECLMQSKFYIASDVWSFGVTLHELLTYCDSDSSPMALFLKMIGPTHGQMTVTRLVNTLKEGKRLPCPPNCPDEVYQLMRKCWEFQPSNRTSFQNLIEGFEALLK
# TEST_METHOD_NOTES: JAK assay (KINASE-GLO luminescent kinase assay), JAK1
# Type: biochemical
# APPLIED_CONDITIONS: 10 nM JAK enzyme, 800 nM Abl peptide, room temperature 75 min
READOUT_TYPE: IC50

[[record]]
compound = "COC(=O)c1cc(Nc2ncc(C)c(-c3cnn(CCC#N)c3)n2)ccc1N1CCOCC1 [COC(═O)C1═CC(═CC═C1)NC2═NC(═C]"
test_target = "JAK1 (Homo sapiens)"
readout_type = "IC50"
measured_value = "< 100 nM"

[[record]]
compound = "N#CCCn1cc(-c2nc(Nc3cc(C(F)(F)F)no3)ncc2Cl)cn1"
test_target = "JAK1 (Homo sapiens)"
readout_type = "IC50"
measured_value = "> 50000 nM"

[[record]]
compound = "COC1(c2ccc(Nc3ncc(C)c(-c4cnn(CC5(CF)CC5)c4)n3)cc2)COC1"
test_target = "JAK1 (Homo sapiens)"
readout_type = "IC50"
measured_value = "1880 nM"

[[record]]
compound = "Cn1ccc(Nc2ncc(Cl)c(-c3cnn(CCC#N)c3)n2)n1 [C[N]1C═CC(═N1)NC2═NC(═C]"
test_target = "JAK1 (Homo sapiens)"
readout_type = "IC50"
measured_value = "< 1000 nM"

[[record]]
compound = "N#CCCn1cc(-c2nc(Nc3ccc(C(=O)O)cc3)ncc2Cl)cn1"
test_target = "JAK1 (Homo sapiens)"
readout_type = "IC50"
measured_value = "< 10 nM"

[[record]]
compound = "COc1cc(Nc2ncc(C)c(-c3cnn(CC4(CF)CC4)c3)n2)sn1"
test_target = "JAK1 (Homo sapiens)"
readout_type = "IC50"
measured_value = "< 100 nM"

[[record]]
compound = "N#CCC1(Cn2cc(-c3ccnc(Nc4ccns4)n3)cn2)CC1 [N#CCC1(CC1)C[N]2C═C(C═N2)C3═CC═NC]"
test_target = "JAK1 (Homo sapiens)"
readout_type = "IC50"
measured_value = "< 100 nM"


###

# TEST_TARGET: JAK2 (Homo sapiens, UniProt O60674)
# Sequence (O60674 whole entry): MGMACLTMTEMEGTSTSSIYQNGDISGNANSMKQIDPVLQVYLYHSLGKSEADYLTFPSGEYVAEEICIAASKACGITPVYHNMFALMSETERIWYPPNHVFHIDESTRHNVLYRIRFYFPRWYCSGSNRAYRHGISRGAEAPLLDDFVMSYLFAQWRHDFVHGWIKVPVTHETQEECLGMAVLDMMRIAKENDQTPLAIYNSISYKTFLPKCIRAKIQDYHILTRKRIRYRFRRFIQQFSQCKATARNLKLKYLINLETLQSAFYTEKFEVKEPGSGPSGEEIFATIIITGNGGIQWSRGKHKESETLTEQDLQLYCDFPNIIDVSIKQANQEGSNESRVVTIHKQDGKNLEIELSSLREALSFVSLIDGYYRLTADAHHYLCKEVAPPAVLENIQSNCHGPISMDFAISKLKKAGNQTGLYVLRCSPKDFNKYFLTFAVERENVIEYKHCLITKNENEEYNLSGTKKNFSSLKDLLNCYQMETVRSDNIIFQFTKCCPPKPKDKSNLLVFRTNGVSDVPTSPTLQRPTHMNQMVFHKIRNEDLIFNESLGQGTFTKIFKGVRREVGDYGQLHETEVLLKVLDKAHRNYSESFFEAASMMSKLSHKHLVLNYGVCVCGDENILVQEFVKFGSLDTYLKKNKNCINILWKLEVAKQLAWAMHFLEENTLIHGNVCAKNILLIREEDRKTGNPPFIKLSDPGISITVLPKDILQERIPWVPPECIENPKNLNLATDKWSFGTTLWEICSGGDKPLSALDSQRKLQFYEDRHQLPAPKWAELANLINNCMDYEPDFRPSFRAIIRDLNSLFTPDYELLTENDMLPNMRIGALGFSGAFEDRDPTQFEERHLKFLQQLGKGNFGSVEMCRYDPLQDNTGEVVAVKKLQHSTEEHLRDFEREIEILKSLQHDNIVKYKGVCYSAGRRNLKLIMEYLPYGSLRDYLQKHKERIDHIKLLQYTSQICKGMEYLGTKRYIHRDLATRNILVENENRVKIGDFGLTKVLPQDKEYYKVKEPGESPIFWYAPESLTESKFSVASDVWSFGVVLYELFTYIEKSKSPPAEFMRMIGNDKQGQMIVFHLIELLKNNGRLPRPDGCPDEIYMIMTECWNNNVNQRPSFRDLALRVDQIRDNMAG
# TEST_METHOD_NOTES: JAK assay (KINASE-GLO luminescent kinase assay), JAK2
# Assay type: biochemical
# APPLIED_CONDITIONS: 10 nM JAK enzyme, 800 nM Abl peptide, room temperature 75 min
IC50 overview
READOUT_TYPE: IC50

[[record]]
compound = "Cc1cnc(Nc2cn(C)nn2)nc1-c1cnn(CC2(CF)CC2)c1 [C[N]1C═C(NC2═NC(═C(C)C═N2)C3═C[N]]"
readout_type = "IC50"
measured_value = "< 100 nM"

[[record]]
compound = "Cc1cnc(Nc2ccc(N3CC4(COC4)C3)cc2)nc1-c1cnn(CC2(CF)CC2)c1 [CC1═C(N═C(NC2═CC═C(C═C2)N3CC4]"
readout_type = "IC50"
measured_value = "< 10 nM"

[[record]]
compound = "COC(=O)c1cccc(Nc2ncc(Cl)c(-c3cnn(CCC#N)c3)n2)c1 [COC(═O)C1═CC═CC(═C1)NC2═NC]"
readout_type = "IC50"
measured_value = "< 10 nM"

[[record]]
compound = "Cc1cnc(Nc2ccc(CNC(=O)CCN(C)C)cc2)nc1-c1cnn(CC2(CF)CC2)c1 [CN(C)CCC(═O)NCC1═CC═C(NC2═NC(═C]"
readout_type = "IC50"
measured_value = "< 10 nM"

[[record]]
compound = "Cc1cnc(Nc2ccc(N3CCN(C(=O)OC(C)(C)C)CC3)cc2)nc1-c1cnn(CC2(CF)CC2)c1 [CC1═C(N═C(NC2═CC═C(C═C2)N3CCN]"
readout_type = "IC50"
measured_value = "< 10 nM"

[[record]]
compound = "N#CCCn1cc(-c2nc(Nc3ccsc3)ncc2Cl)cn1 [ClC1═C(N═C(NC2═CSC═C2)N═C1)C3═C[N]]"
readout_type = "IC50"
measured_value = "< 100000 nM"

[[record]]
compound = "Cc1cnc(Nc2ccc(CN3CCN(C)CC3)cc2)nc1-c1cnn(CC2(CF)CC2)c1 [CN1CCN(CC1)CC2═CC═C(NC3═NC]"
readout_type = "IC50"
measured_value = "< 10 nM"

